# tested-target: Cytochrome P450 3A4 (Homo sapiens, UniProt P08684)
# Sequence (P08684 whole entry): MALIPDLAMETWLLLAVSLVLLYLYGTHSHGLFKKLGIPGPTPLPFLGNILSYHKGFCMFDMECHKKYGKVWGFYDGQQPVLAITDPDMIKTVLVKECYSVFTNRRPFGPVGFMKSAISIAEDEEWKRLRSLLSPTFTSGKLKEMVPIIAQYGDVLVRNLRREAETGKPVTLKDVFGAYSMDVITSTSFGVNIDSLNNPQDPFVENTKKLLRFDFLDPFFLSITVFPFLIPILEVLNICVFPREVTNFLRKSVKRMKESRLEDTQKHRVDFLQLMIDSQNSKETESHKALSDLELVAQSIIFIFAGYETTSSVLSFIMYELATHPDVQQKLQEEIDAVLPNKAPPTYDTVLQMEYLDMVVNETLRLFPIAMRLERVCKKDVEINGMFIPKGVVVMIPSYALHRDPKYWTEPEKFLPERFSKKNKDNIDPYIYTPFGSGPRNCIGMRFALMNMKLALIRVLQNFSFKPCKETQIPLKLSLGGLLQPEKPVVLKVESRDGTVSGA
# test-protocol: CYP Inhibition Assay
measurement-type: pIC50
On this scale, pIC50 is minus log10 of a concentration expressed in M (mol/L).

## Input I'd like to know its pIC50. The molecule in question is CC(=O)CCC(=O)Nc1ncc2cc1O[C@H](C)c1cc(F)ccc1C(=O)N(C)Cc1nn(C)c(C#N)c1-2 [US12338251, Compound 3]
## Output 3.55

The values you see were collected from BindingDB's records for patent US12338251.
